# study-target: mouse CD98hc ectodomain (recombinant) (mouse) (UniProt P10852)
# Sequence (P10852 100-526): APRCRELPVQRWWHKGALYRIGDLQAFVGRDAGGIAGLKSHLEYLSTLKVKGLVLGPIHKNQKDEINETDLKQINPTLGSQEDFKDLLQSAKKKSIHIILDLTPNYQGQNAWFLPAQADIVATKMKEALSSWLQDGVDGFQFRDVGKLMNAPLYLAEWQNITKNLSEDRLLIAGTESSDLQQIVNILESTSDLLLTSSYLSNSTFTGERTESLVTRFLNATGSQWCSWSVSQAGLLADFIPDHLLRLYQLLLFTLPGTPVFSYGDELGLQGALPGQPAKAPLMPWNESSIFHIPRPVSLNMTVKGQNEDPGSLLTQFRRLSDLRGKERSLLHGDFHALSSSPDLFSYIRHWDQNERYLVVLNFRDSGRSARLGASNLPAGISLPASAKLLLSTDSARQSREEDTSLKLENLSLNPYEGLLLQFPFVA
# protocol: ELISA, purified VNAR-Fc titrated on plate-coated CD98hc (1 ug/mL)
property-name: EC50 (nM)

{"columns": ["binder", "property-name", "observed-result"],
 "data": [
  ["F12 VNAR-hFc fusion (Fc fusion, Bivalent VNAR-Fc, VNAR N-terminal to human IgG1 Fc; Expi293; also called F12-hFc; clone F12; not shown: human IgG1 Fc (hinge, CH2, CH3) of vector pFUSE-hIgG1e3-Fc2) ARVDQTPQTITKEEGESLTINCVLRVHGRALASTSWYRKKSGSTREETISKGGRYVETVNSGSKSFSLRINDLTVEDSGTYRCNVYGLSFGDIEGVKKIDVYGDGTAVTVNA", "EC50", 72],
  ["D1 VNAR-hFc fusion (Fc fusion, Bivalent VNAR-Fc, VNAR N-terminal to human IgG1 Fc; Expi293; also called D1-hFc; not shown: human IgG1 Fc (hinge, CH2, CH3) of vector pFUSE-hIgG1e3-Fc2) ARVDQTPQTITKEEGESLTINCVLRHNYSALASTSWYRKKSGSTREETISKGGRYVETVNSGSKSFSLRINDLTVEDSGTYRCNVYGISFIEEKIRYDFDVYGDGTAVTVNA", "EC50", 190],
  ["H7 VNAR-hFc fusion (Fc fusion, Bivalent VNAR-Fc, VNAR N-terminal to human IgG1 Fc; Expi293; not shown: human IgG1 Fc (hinge, CH2, CH3) of vector pFUSE-hIgG1e3-Fc2) ARVDQTPQTITKEEGESLTINCVLRYNNPALASTSWYRKKSGSTREETISKGGRYVETVNSGSKSFSLRINDLTVEDSGTYRCNVYFFPSFLVDKLQSHDVYGDGTAVTVNA", "EC50", 504],
  ["E12 VNAR-hFc fusion (Fc fusion, Bivalent VNAR-Fc, VNAR N-terminal to human IgG1 Fc; Expi293; not shown: human IgG1 Fc (hinge, CH2, CH3) of vector pFUSE-hIgG1e3-Fc2) ARVDQTPQTITKEEGESLTINCVLRTQDPALASTSWYRKKSGSTREETISKGGRYVETVNSGSKSFSLRINDLTVEDSGTYRCNVYFLLAPTKTKLQGIDVYGDGTAVTVNA", "EC50", 819],
  ["F1 VNAR-hFc fusion (Fc fusion, Bivalent VNAR-Fc, VNAR N-terminal to human IgG1 Fc; Expi293; also called Fl; not shown: human IgG1 Fc (hinge, CH2, CH3) of vector pFUSE-hIgG1e3-Fc2) ARVDQTPQTITKEEGESLTINCVLRVHGRALASTSWYRKKSGSTREETISKGGRYVETVNSGSKSFSLRINDLTVEDSGTYRCNVYGLSSGDIEGVKKIDVYGDGTAVTVNA", "EC50", 3860],
  ["H6 VNAR-hFc fusion (Fc fusion, Bivalent VNAR-Fc, VNAR N-terminal to human IgG1 Fc; Expi293; not shown: human IgG1 Fc (hinge, CH2, CH3) of vector pFUSE-hIgG1e3-Fc2) ARVDQTPQTITKEEGESLTINCVLRTHSNALASTSWYRKKSGSTREETISKGGRYVETVNSGSKSFSLRINDLTVEDSGTYRCNVYAFLEIQPNIYHEFDVYGDGTAVTVNA", "EC50", 86]
]}
